B1: CPEB3 Ribozyme (parent)
chain: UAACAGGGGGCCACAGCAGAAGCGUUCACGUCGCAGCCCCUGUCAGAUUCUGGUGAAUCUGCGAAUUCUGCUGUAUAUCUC

variants of: B1; assay: self-cleavage, relative activity (ratio to wild type); higher = more cleavage; in vitro, sequencing
Lab note: compare self-cleavage against 0.3. Equal or greater, write true (1). Smaller, write false (0).

Below are worked cases with known answers.
C17U U69G; false (0)
C44A U66G; false (0)
G9U U66G; false (0)
G36U; false (0)
C4G A21G; true (1)
C23U U49C; false (0)
C29G A47G; false (0)
C27U C38U; true (1)

Enquiry: Kindly determine if self-cleavage recorded for G24A C62U is above or exactly 0.3.
Return: false (0)

Enquiry: Please tell me: is the variant A35G C40U at or over 0.3 in terms of self-cleavage?
Return: true (1)

Enquiry: I'd appreciate it if you could say whether C62U C68U has self-cleavage at least equal to 0.3.
Return: false (0)

Enquiry: Check if self-cleavage >= 0.3 (inclusive). Item: G6U A64U
Return: false (0)

Enquiry: Determine whether this variant has self-cleavage no lower than 0.3: A13C A28U
Return: true (1)
